Reference source: patent US20120184562A1

- tested system: Human DYRK1A (Homo sapiens, UniProt Q13627)
- Construct: purchased Invitrogen PV3997
- assay comment: DYRK1A Kinase TR-FRET (IMAP-Tb) Assay
- Format: biochemical
- stated conditions: TR-FRET (IMAP-Tb); ATP 70 μM; 37° C., 60 minutes; average of multiple runs; read-out: Enzyme IC50 (μM) DYRK1A
reported endpoint: IC50 (µM)

compound="COc1ccc2cc(C(=O)Nc3cc(C(=O)NC(CCN)c4ccccc4)ccc3Cl)c(=O)[nH]c2n1 (stereo not drawn)" reported_endpoint=IC50 unit_of_measure=µM recorded_value=0.0392
compound=COc1cc2[nH]c(=O)c(C(=O)Nc3cc(C(=O)NCc4ccsc4)ccc3Cl)cc2cn1 reported_endpoint=IC50 unit_of_measure=µM recorded_value=0.028
compound=COc1cc2[nH]c(=O)c(C(=O)Nc3cc(C(=O)NCc4cccc(Cl)c4)ccc3Cl)cc2cn1 reported_endpoint=IC50 unit_of_measure=µM recorded_value=0.051
